System: CCRIS mutagenicity, Ames/micronucleus/aberration tests
Test: CCRIS mutagenicity studies
Conditions: Test System: AMES SALMONELLA TYPHIMURIUM; Strain/Indicator: TA100; Metabolic Activation: NONE; Method: PREINCUBATION
Calls of active or inactive are those of the source. The rule behind the calls is not given here.
API: response.call in active, inactive

{"columns": ["COMPOUND", "CLASS ASSIGNMENT"],
 "data": [
  ["Cc1ccc(N)cc1N", "inactive"],
  ["O=[N+]([O-])c1ccccc1O", "inactive"],
  ["C=C(C)CC(C)(C)C", "inactive"],
  ["C=C1C[C@@]23CC[C@H]4[C@@](C)(CCC[C@@]4(C)C(=O)O)[C@@H]2CC[C@]1(O)C3", "inactive"],
  ["N[C@@H](CCC(=O)N[C@@H](CSN=O)C(=O)NCC(=O)O)C(=O)O", "active"]
]}

Could you kindly confirm the outcome this assay logged for Oc1c(Br)cc(Br)cc1Br ? inactive

Also, CNc1ccc2ncccc2c1N please. inactive

Also, CCN(N=O)C(N)=O please. active

Also, COC(=O)c1oc(NO)c(-c2ccccc2)c1-c1ccccc1 please. inactive

Also, N=C(N)N please. inactive

Also, CC12OOC1(C)c1ccc3cccnc3c1O2 (stereo unspecified) please. inactive

====

Test system: CCRIS mutagenicity, Ames/micronucleus/aberration tests
Assay: CCRIS mutagenicity studies
Settings: Test System: AMES SALMONELLA TYPHIMURIUM; Strain/Indicator: TA1535; Metabolic Activation: NONE; Method: STANDARD PLATE
The source made the active and inactive calls. No rule for the calls is given here.
ATTRIBUTE MEASURED: mutagenic call

{"columns": ["SMILES TEXT", "STUDY TARGET", "mutagenic call"],
 "data": [
  ["O=[N+]([O-])c1ccc2c(CCO)c[nH]c2c1", "CCRIS mutagenicity, Ames/micronucleus/aberration tests", "inactive; negative"],
  ["O=C1c2ccccc2-c2c1c1ccccc1c(=O)n2CCNCCO", "CCRIS mutagenicity, Ames/micronucleus/aberration tests", "inactive; negative"],
  ["Cc1cc2c(c(O)c1O)C(=O)c1c(O)cc(O)cc1C2=O", "CCRIS mutagenicity, Ames/micronucleus/aberration tests", "inactive; negative"],
  ["O=[N+]([O-])c1cc2ccc3cccc4ccc(c1)c2c34", "CCRIS mutagenicity, Ames/micronucleus/aberration tests", "inactive; negative"]
]}

Form field: reported mutagenic call of C=C[Si](C)(Cl)Cl inactive; negative

====

Test system: CCRIS mutagenicity, Ames/micronucleus/aberration tests
Experiment: CCRIS mutagenicity studies
Details: Test System: AMES SALMONELLA TYPHIMURIUM; Strain/Indicator: TA100; Metabolic Activation: RAT, LIVER, S-9, AROCLOR 1254; Method: STANDARD PLATE
Activity calls are given as the source filed them. How the calls were made is not given here.
API: response.call in true = active, false = inactive

{"columns": ["MOLECULE", "CLASS ASSIGNMENT"],
 "data": [
  ["O=[N+]([O-])c1ccccc1OS(=O)(=O)c1cccc2cccnc12", "true"]
]}

Switching to the query record.
Could you kindly confirm the outcome this assay logged for Cc1c2ccccc2cc2ccccc12 ? false

====

Tested on: CCRIS mutagenicity, Ames/micronucleus/aberration tests
Assay: CCRIS mutagenicity studies
Conditions: Test System: AMES SALMONELLA TYPHIMURIUM; Strain/Indicator: TA100; Metabolic Activation: NONE; Method: STANDARD PLATE
The source made the active and inactive calls. The rule behind the calls is not given here.
API: response.call in true (1) = active, false (0) = inactive

Could you kindly confirm the outcome this assay logged for FC(F)(F)C(F)(F)C(Cl)Cl ? false (0)

Also, CN1CCC[C@H]1c1cccnc1 please. false (0)

Also, Cc1ccc(C(=O)O[C@@H](C(=O)O)[C@@H](OC(=O)c2ccc(C)cc2)C(=O)O)cc1 (tested in a mixture with another compound) please. false (0)

Also, ClCc1cc2cccc3ccc4c5ccccc5cc1c4c32 please. true (1)

Also, O=[N+]([O-])c1cccc(CO/N=C/c2nc3cc([N+](=O)[O-])ccc3n2Cc2ccc(F)cc2)c1 please. false (0)

Also, CCC(=O)OCC(=O)[C@@]1(OC(=O)CC)[C@H](C)C[C@H]2[C@H]3[C@H]([C@@H](O)C[C@@]21C)[C@@]1(C)C=CC(=O)C=C1C[C@H]3Cl please. false (0)

Also, CC(=O)ON(OCc1ccc(Br)cc1)C(=O)c1ccccc1 please. true (1)

Also, C=C(C)c1ccc(C)c2ccc(C=O)c-2c1 please. false (0)

Also, CCCOS(=O)(=O)c1ccccc1 please. true (1)

Also, COc1cccc2c1cc([N+](=O)[O-])c1c(C(=O)O)cc3c(c12)OCO3 please. false (0)

Also, Cn1c([N+](=O)[O-])cnc1C1NC(CO)(CO)CO1 (stereo unspecified) please. true (1)

Also, c1ccc2c(c1)Cc1ccccc1-2 please. false (0)

Also, COCC(O)Cn1cc([N+](=O)[O-])nc1Cl (stereo unspecified) please. true (1)

Also, O[C@H]1[C@H]2O[C@H]2c2c(ccc3ccccc23)[C@@H]1O please. true (1)

Also, C[Si](C)(Cl)Cl please. false (0)

Also, COc1ccc2c3c(cccc13)OC([N+](=O)[O-])=C2 please. true (1)
